- Tested on: TK-10 renal
- Assay Method Text: NCI tumour cell line growth inhibition, 48 h
Measurement Name: TGI (µM)
Answers are plain numbers, in µM.

O=C1c2ccccc2-c2c1c1ccc([N+](=O)[O-])cc1c(=O)n2CCNCCCNCCn1c2c(c3ccc([N+](=O)[O-])cc3c1=O)C(=O)c1ccccc1-2 | 22.1

Let us move to another entry and its TGI.
Measured on TK-10 renal, "CN(C)/C=C/c1nnnn1-c1ccc(Cl)cc1" has a documented TGI of 80.4

###

- System: NCI-H460 lung
Give one outcome, nothing more. List: active, inactive

These solved cases illustrate the format of a correct answer.
O=S(=O)([O-])[O-].[Cl-].[NH2-].[NH2-].[NH2-].[NH2-].[Ru+3].c1ccc(-c2cccnc2)cc1 | inactive
CN(C)/C=C/c1nnnn1-c1ccc(Cl)cc1 | inactive
COc1ccc(Nc2ncccc2/C=C/C(=O)c2cc(OC)c(OC)c(OC)c2)cc1 | inactive
COc1ccc(Nc2ccnc(NCCNc3ccnc4cc(Cl)ccc34)n2)cc1 | inactive
Nc1ccc(N=Nc2ccccc2)c(N)n1 | inactive

I would be grateful if you could indicate the recorded call for "CC(=N\O)/C(C)=N/O.CC(=N\O)/C(C)=N/O.CC(=N\O)/C(C)=N/O.CC(=N\O)/C(C)=N/O.[Cu].[Cu]" .
inactive

What did this assay record as the result for CCCCCCCCCCCCCCCC(=O)OCC1OC(n2cnc3c(=S)nc(N)[nH]c32)C(OC(=O)CCCCCCCCCCCCCCC)C1OC(=O)CCCCCCCCCCCCCCC (stereo not drawn) ?
inactive

State the result this test recorded for "Cc1ccc2c[c]1[Hg][CH2]COS2(=O)=O" .
inactive

Just curious, what result did "CCc1ccc(-c2ccc(=O)n(-c3ccc(S(N)(=O)=O)cc3)n2)cc1" get here?
inactive

Could you please tell me the result logged for "N#Cc1cccc(C(=O)c2cnn(-c3ccc(F)cc3)c2N)c1" in this assay?
inactive

Hey, what did the test say about "c1cc(C2CCCCC2)ccc1OCCCCCCN1CCNCC1" ?
inactive

Assay result, entry "Cc1[nH]c(C(=O)Nc2ccc(C(=O)N3CCNCC3)cc2OC(C)C)c(Cl)c1Cl" — outcome?
inactive

What did this assay record as the result for "O=C(Nc1ccc(Cl)cc1)c1cc2c(cc1O)[nH]c1ccccc12" ?
inactive

What outcome does the record of this test show for "CCOC(=O)c1c2c(n3ccc(NC(=O)OC(C)(C)C)cc13)C(=O)c1ncccc1C2=O" ?
active

Recorded call for COc1ccc(C(O)c2cc3c(N)c(C(=O)Nc4cccc(Cl)c4C)sc3nc2C)cc1 (stereo not drawn) ?
inactive

Record lookup: outcome of this test for NS(=O)(=O)c1ccc(C2C3=C(CCCC3=O)OC3=C2C(=O)c2ccccc2C3=O)cc1 (stereo not drawn) ?
inactive

Field: outcome | Entry: O=c1[nH]cnc2c1nnn2C1OC(CO)C(O)C1O (stereo not drawn)
inactive

Check the results log: what was the call for "CNc1nc(C)c(-c2nc(Nc3cccc(S(N)(=O)=O)c3)ncc2F)s1" ?
active

###

- Tested on: SF-539 CNS
- Assay Method Text: NCI tumour cell line growth inhibition, 48 h
Measurement Name: TGI (µM)
One number for each entry, in µM.

Hi, could you look up TGI for each item in my list?
1. C=C(CC(=O)Nc1ccc(C(=O)OC)o1)C(=O)OC
2. C=C(C)C(=O)OC1CC2(C)OC2CC(OC(C)=O)/C(C)=C/C2OC(=O)C(=C)C21 (stereo not drawn)

36.1
8.57

Consider the following items and state reported TGI for each.
1. NC(N)=N/N=C/c1c(-c2cccs2)nc2sccn12
2. N#CC(C#N)=Cc1c(O)ccc2ccccc12
3. NCCNCCCCCCNC(=O)c1cccc2cc3ccccc3nc12
4. O=C(c1ccccc1)c1c(C(F)(F)F)n([O-])c2cc(Cl)c(Cl)cc2[n+]1=O
5. COc1ccccc1/C=C1\CCC(CNc2ccc(Cl)cc2)C1=O (stereo not drawn)
6. COc1cc([C@@H]2c3cc4c(cc3C(Br)[C@H]3COC(=O)[C@H]23)OCO4)cc(OC)c1OC (stereo partly drawn)

1. 25.5
2. 29.1
3. 3.88
4. 3.88
5. 16
6. 0.598
